Measurement Target: T1, human PRLR on cells (endogenous on T47D, T47D#11, MCF7); introduced in HEK293/hPRLR/STAT5-Luc, 293/hPRLR, … (human, UniProt P16471 25-622)
T1 construct: no tag is stated for these lines; also called prolactin receptor
T1 sequence: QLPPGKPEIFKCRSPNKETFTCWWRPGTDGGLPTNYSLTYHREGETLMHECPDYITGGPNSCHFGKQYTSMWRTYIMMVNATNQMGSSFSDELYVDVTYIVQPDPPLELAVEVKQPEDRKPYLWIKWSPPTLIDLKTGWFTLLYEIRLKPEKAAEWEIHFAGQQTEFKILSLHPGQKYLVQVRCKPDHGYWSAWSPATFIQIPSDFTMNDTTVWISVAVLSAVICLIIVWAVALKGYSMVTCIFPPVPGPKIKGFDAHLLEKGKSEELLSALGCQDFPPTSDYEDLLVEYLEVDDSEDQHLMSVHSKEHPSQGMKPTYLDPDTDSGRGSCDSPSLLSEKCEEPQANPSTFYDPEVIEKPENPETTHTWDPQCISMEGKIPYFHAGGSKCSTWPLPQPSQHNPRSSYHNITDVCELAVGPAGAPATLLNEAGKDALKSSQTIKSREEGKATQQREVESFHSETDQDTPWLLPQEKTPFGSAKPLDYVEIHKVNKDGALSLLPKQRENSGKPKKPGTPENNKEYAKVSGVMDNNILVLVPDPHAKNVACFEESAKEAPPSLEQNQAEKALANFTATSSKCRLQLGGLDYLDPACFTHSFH
Test Method Notes: FACS on T47D cells
Threshold 40 fold: FACS Cell Binding (Fold Above Background) strictly smaller gives y, otherwise n.

Some solved entries appear below for comparison.
# Binder, Class Label
measured = [
    ("H1H6782P (antibody, human IgG1, V domains shown, human IgG1 Fc (H1H)) VH: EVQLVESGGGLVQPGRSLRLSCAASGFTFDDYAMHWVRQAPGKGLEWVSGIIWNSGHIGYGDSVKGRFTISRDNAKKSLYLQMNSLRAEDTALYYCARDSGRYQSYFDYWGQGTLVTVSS VL: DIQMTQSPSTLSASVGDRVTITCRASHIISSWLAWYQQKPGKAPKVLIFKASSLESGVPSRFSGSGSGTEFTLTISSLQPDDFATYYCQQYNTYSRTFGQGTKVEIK", "n"),
    ("H1H6804P (antibody, human IgG1, V domains shown, human IgG1 Fc (H1H)) VH: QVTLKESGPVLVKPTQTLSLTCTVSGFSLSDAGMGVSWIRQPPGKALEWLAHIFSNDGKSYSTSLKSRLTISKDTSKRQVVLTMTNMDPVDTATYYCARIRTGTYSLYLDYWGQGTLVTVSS VL: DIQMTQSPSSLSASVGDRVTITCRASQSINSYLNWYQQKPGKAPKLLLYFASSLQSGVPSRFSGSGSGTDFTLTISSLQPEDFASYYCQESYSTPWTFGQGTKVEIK", "y"),
    ("H1H6797P (antibody, human IgG1, V domains shown, human IgG1 Fc (H1H)) VH: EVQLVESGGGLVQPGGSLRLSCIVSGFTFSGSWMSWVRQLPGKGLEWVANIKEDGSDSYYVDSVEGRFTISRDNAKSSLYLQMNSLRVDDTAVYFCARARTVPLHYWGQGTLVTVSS VL: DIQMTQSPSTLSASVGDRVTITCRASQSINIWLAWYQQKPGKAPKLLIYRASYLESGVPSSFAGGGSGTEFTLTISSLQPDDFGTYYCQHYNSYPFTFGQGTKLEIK", "y"),
]

Enquiry: Dear colleague, could you confirm whether FACS Cell Binding (Fold Above Background) of H1H6976N (antibody, human IgG1, V domains shown, also called H2M6976N) VH: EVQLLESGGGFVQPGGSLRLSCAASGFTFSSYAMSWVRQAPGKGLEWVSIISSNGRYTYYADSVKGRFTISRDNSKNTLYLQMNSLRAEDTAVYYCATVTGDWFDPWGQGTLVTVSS VL: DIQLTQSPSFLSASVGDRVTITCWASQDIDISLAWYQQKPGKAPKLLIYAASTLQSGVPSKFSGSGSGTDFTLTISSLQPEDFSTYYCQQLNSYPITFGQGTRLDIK falls below 40 fold? Thanks.
Return: y

Enquiry: Is FACS Cell Binding (Fold Above Background) of H1H6959N2 (antibody, human IgG1, V domains shown, also called H2M6959N2) VH: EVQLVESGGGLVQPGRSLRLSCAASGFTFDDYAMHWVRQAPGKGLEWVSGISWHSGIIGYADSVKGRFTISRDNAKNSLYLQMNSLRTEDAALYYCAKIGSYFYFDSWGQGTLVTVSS VL: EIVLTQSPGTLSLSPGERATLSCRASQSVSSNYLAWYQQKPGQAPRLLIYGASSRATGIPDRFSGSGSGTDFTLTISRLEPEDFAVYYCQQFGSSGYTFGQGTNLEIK strictly below 40 fold?
Return: y
